# Target Desc: human mGlu5a receptor (Homo sapiens, UniProt P41594)
# Construct: expressed in transfected cells
# Sequence (P41594 21-1180 isoform P41594-2 limits assumed): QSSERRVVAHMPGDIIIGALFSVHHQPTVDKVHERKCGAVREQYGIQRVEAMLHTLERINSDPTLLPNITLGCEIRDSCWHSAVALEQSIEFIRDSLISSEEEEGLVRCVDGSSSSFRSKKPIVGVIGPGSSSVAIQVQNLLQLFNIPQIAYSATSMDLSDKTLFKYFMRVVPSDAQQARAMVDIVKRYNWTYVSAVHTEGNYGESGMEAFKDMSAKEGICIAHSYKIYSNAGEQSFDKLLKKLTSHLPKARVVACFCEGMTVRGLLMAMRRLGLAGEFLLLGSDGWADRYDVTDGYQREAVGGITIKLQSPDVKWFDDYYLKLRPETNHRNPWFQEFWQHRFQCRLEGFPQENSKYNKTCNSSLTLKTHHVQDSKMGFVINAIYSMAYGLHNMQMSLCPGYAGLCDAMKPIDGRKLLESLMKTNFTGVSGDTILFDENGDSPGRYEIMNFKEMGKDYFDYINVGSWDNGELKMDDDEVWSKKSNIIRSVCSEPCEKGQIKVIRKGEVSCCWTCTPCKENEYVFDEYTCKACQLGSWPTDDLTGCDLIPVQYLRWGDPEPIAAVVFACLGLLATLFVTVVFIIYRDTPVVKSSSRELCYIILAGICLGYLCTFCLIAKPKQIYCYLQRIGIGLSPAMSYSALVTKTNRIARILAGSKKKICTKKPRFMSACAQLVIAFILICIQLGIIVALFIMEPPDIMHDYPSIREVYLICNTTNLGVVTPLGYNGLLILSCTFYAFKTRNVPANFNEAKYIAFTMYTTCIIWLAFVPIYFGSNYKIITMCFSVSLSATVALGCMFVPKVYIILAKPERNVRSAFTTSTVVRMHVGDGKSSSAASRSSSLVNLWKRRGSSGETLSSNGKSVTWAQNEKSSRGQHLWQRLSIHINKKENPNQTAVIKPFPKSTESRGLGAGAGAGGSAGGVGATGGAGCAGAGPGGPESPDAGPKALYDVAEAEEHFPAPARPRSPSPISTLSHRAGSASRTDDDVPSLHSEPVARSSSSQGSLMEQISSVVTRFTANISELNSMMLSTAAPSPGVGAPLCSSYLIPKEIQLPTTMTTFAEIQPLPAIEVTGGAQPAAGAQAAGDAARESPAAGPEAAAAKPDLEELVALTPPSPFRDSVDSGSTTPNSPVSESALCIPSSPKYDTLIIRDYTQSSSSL
# Assay Method Text: Intracellular Ca2+ mobilization assay (mGlu5 PAM)
# Assay type: cell-based
# Condition Set: maximal response in % of the maximal stimulatory effect obtained with saturating concentrations of L-glutamate; read-out: Eff. (%)
Measured Metric: Emax (%)
Give bare numbers, in %.

Study these solved cases before continuing.
Compound	Emax, %
CN1C(=O)N(c2ccc(C#Cc3ccc(F)cc3)nc2)CC1(C)C [Example 4]	44
CN1N(c2ccc(C#Cc3cccc(F)c3)nc2)C(=O)CC1(C)C [Example 13]	63
CC1(C)CC(=O)N(c2ccc(C#Cc3ccccc3)nc2)N1 [Example 8]	56
CC1(C)CC(=O)N(c2ccc(C#Cc3cc(F)ccc3F)nc2)N1 [Example 16]	41
CC1(C)CC(=O)N(c2ccc(C#Cc3cccc(F)c3)nc2)C1 [Example 7]	62
CCN1C(=O)N(c2cnc(C#Cc3ccccc3)nc2)CC1(C)C [Example 11]	52

Below: the item to evaluate.
Query: Request the reported Emax associated with CN1C(=O)N(c2ccc(C#Cc3ccccc3)nc2)CC1(C)C [Example 3]
Reply: 45
